Where these numbers come from: paper PMC4949396

Experiment: plasma pharmacokinetics on day 5 after multiple oral doses of apremilast in healthy male subjects
Type: in vivo, human
Settings: male, human, oral; apremilast 50 mg b.i.d., day 5, plasma, τ 12 hours; read-out: AUC0–τ, geometric mean (geometric CV%)
measured_quantity: AUC
Answer with the figure and its unit, nothing else.

Input line: Name the recorded AUC for "CCOc1cc([C@@H](CS(C)(=O)=O)N2C(=O)c3cccc(NC(C)=O)c3C2=O)ccc1OC" .
Output line: 3450 ng·h/mL

* * *

Biological target: hERG potassium channel (Homo sapiens, UniProt Q12809)
Construct: expressed in transfected cells; host or cells: HEK-293 cells stably expressing hERG
Sequence (Q12809 whole entry): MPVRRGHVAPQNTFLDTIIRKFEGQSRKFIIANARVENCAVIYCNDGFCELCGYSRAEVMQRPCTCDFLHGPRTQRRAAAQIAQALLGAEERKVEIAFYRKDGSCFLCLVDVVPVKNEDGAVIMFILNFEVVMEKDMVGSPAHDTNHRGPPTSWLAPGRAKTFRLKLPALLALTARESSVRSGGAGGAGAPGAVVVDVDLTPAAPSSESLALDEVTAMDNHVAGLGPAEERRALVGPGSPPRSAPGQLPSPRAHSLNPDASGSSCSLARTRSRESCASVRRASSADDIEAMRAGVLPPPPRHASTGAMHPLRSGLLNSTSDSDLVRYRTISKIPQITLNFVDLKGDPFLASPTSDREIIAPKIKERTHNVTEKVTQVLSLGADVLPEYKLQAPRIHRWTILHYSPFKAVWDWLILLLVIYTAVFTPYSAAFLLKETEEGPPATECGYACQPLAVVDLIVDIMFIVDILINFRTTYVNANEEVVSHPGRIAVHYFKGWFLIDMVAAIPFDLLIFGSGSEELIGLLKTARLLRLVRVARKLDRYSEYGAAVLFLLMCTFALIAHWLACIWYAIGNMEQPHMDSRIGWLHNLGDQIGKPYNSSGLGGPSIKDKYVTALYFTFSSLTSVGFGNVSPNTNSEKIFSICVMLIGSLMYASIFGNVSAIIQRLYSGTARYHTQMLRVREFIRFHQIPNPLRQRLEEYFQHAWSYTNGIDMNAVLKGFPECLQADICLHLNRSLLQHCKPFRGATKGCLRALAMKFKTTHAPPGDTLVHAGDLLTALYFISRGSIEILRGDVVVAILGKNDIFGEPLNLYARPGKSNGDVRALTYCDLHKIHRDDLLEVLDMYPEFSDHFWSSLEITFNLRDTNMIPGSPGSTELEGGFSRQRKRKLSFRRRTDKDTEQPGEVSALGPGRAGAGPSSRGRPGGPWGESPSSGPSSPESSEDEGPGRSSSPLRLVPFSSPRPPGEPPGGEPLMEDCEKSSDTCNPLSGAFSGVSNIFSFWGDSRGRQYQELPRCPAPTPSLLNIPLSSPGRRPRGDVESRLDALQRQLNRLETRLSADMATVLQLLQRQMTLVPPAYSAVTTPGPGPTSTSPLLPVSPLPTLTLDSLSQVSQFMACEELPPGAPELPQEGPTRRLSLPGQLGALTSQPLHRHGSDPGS
Assay: voltage-clamp study of hERG current in HEK293 cells expressing hERG
Format: cell-based
Conditions: HEK293 cells expressing hERG; read-out: hERG current inhibition, estimated half maximal inhibitory concentration (IC50)
measured_quantity: pIC50
Keep it numeric: pIC50 is minus log10 of the concentration in mol/L.

Input line: Identify the measured pIC50 of CCOc1cc([C@@H](CS(C)(=O)=O)N2C(=O)c3cccc(NC(C)=O)c3C2=O)ccc1OC [apremilast] for hERG potassium channel (Homo sapiens, UniProt Q12809).
Output line: 3.73

* * *

Test: plasma pharmacokinetics on day 5 after multiple oral doses of apremilast in healthy male subjects
Type: in vivo, human
Settings: male, human, plasma, oral; healthy subjects, 50 mg b.i.d.; read-out: maximum AUC0–12
Source text: PK parameters were derived using noncompartmental methods with WinNonlin® Professional version 5.1.2 (Pharsight Corporation, Mountain View, CA, USA). […]
measured_quantity: AUC(0-t)

Input line: Name the recorded AUC(0-t) for "CCOc1cc([C@@H](CS(C)(=O)=O)N2C(=O)c3cccc(NC(C)=O)c3C2=O)ccc1OC" .
Output line: 9350 ng·h/mL

* * *

Assay: plasma pharmacokinetics on day 5 after multiple oral doses of apremilast in healthy male subjects
Assay type: in vivo, human
Details: male, human, plasma, oral, 50 mg, healthy subjects, 50 mg b.i.d.; read-out: maximum Cmax
measured_quantity: Cmax (ng/mL)
Just the number please, in ng/mL, no unit attached.

Input line: Name the recorded Cmax for "CCOc1cc([C@@H](CS(C)(=O)=O)N2C(=O)c3cccc(NC(C)=O)c3C2=O)ccc1OC" .
Output line: 1060
